Data credit: ChEMBL document CHEMBL1121654

Experiment: Compound was evaluated for -Log [fraction ionized x ED50 (protection)]
Format: ADME
Listed here are molecules together with their documented p[BH+50].
The response must contain the number and no unit.

Illustrative cases are given below, each with its answer.
molecule	observed
Cc1cccc(C)c1NC(=O)CCCCCN	0.57
CCN(CC)C(C)CC(=O)Nc1c(C)cccc1C (stereo not drawn)	1.31

Field p[BH+50] (entry "CCN(CC)CCCCCCC(=O)Nc1c(C)cccc1C" ) reads 1.4

Field p[BH+50] (entry CCN(CC)C(C)CCCC(=O)Nc1c(C)cccc1C (stereo not drawn) ) reads 1

Field p[BH+50] (entry "CCN(CC)CCC(=O)Nc1c(C)cccc1C" ) reads 0.9

Field p[BH+50] (entry Cc1cccc(C)c1NC(=O)CC(C)N (stereo not drawn) ) reads 0.62

Field p[BH+50] (entry CCN(CC)C(C)C(=O)Nc1c(C)cccc1C (stereo not drawn) ) reads 0.88

Field p[BH+50] (entry Cc1cccc(C)c1NC(=O)CN [GLYCINEXYLIDIDE] ) reads 0.37

Field p[BH+50] (entry "Cc1cccc(C)c1NC(=O)CCN" ) reads 0.16

Field p[BH+50] (entry "CCN(CC)CCCCCC(=O)Nc1c(C)cccc1C" ) reads 0.89

Field p[BH+50] (entry "CCN(CC)CC(=O)Nc1c(C)cccc1C" ) reads 0.88

Field p[BH+50] (entry Cc1cccc(C)c1NC(=O)C(C)N (stereo not drawn) [TOCAINIDE] ) reads 0.5

Field p[BH+50] (entry "CCN(CC)CCCCC(=O)Nc1c(C)cccc1C" ) reads 0.92

###

Listed here are compounds together with their documented pKa.
Assay: Dissociation constant (pKa)
Assay type: physicochemical
The response must contain the number and no unit.

Illustrative cases are given below, each with its answer.
compound	pKa
CCN(CC)C(C)C(=O)Nc1c(C)cccc1C (centres undefined)	7.93
Cc1cccc(C)c1NC(=O)CCN	8.75
CCN(CC)CCCC(=O)Nc1c(C)cccc1C	9.52
CCN(CC)C(C)CC(=O)Nc1c(C)cccc1C (centres undefined)	9.03

Field pKa (entry "CCN(CC)CCC(=O)Nc1c(C)cccc1C" ) reads 8.83

Field pKa (entry Cc1cccc(C)c1NC(=O)CCCC(C)N (centres undefined) ) reads 9.79

Field pKa (entry Cc1cccc(C)c1NC(=O)CCC(C)N (centres undefined) ) reads 9.36

Field pKa (entry "Cc1cccc(C)c1NC(=O)CCCN" ) reads 9.35

Field pKa (entry Cc1cccc(C)c1NC(=O)C(C)N (centres undefined) [TOCAINIDE] ) reads 7.54

###

Assay: Therapeutic index is the ratio of ED50 (ataxia) to ED50 (protection) in mice
Details: mouse; read-out: TI
assay.readout: selectivity ratio
The response must contain the number and no unit.

molecule	assay.readout	observed
Cc1cccc(C)c1NC(=O)CN [GLYCINEXYLIDIDE]	selectivity ratio	0.7
Cc1cccc(C)c1NC(=O)C(C)N(C)C (stereo not given)	selectivity ratio	0.8
CCN(CC)C(C)CCC(=O)Nc1c(C)cccc1C (stereo not given)	selectivity ratio	5.5
Cc1cccc(C)c1NC(=O)CCN	selectivity ratio	3.2

Note: attention shifts to another entry.
Field selectivity ratio (entry "CCN(CC)CCCCCC(=O)Nc1c(C)cccc1C" ) reads 5.2

###

Assay: Compound was evaluated for -Log [fraction ionized x ED50 (protection)]
Assay type: ADME
assay.readout: p[BH+50]
The response must contain the number and no unit.

Illustrative cases are given below, each with its answer.
compound	observed
CCN(CC)CCCC(=O)Nc1c(C)cccc1C	0.86
Cc1cccc(C)c1NC(=O)CCCC(C)N (configuration not stated)	0.72

Field p[BH+50] (entry "Cc1cccc(C)c1NC(=O)CCCCN" ) reads 0.51

Field p[BH+50] (entry "Cc1cccc(C)c1NC(=O)CCCN" ) reads 0.1

Field p[BH+50] (entry CCN(CC)C(C)CCC(=O)Nc1c(C)cccc1C (configuration not stated) ) reads 0.68

Field p[BH+50] (entry Cc1cccc(C)c1NC(=O)C(C)N(C)C (configuration not stated) ) reads 0.94

Field p[BH+50] (entry Cc1cccc(C)c1NC(=O)CCC(C)N (configuration not stated) ) reads 0.45

###

Test: Therapeutic index is the ratio of ED50 (ataxia) to ED50 (protection) in mice
Settings: mouse; read-out: TI
# label = MET if selectivity ratio < 6 else NOT MET

As a guide, the following entries are already answered.
molecule	assigned.label
CCN(CC)CCCCCCC(=O)Nc1c(C)cccc1C	NOT MET
CCN(CC)CCC(=O)Nc1c(C)cccc1C	MET
CCN(CC)C(C)C(=O)Nc1c(C)cccc1C (centres undefined)	MET
CCN(CC)C(C)CCCC(=O)Nc1c(C)cccc1C (centres undefined)	NOT MET
Cc1cccc(C)c1NC(=O)CCCCN	MET

query: Given Cc1cccc(C)c1NC(=O)CCCC(C)N (centres undefined) , is recorded selectivity ratio strictly lower than 6?
result: NOT MET

query: Given "Cc1cccc(C)c1NC(=O)CCCCCN" , is recorded selectivity ratio strictly lower than 6?
result: NOT MET

query: Given Cc1cccc(C)c1NC(=O)C(C)N (centres undefined) [TOCAINIDE] , is recorded selectivity ratio strictly lower than 6?
result: MET

query: Given Cc1cccc(C)c1NC(=O)CC(C)N (centres undefined) , is recorded selectivity ratio strictly lower than 6?
result: NOT MET

query: Given "CCN(CC)CCCCC(=O)Nc1c(C)cccc1C" , is recorded selectivity ratio strictly lower than 6?
result: MET

query: Given "Cc1cccc(C)c1NC(=O)CCCN" , is recorded selectivity ratio strictly lower than 6?
result: MET

###

Listed here are compounds together with their documented pKa.
Test: Dissociation constant (pKa)
Type: physicochemical
The response must contain the number and no unit.

Illustrative cases are given below, each with its answer.
compound	pKa
CCN(CC)CCCCCC(=O)Nc1c(C)cccc1C	10.2
CCN(CC)CCCCC(=O)Nc1c(C)cccc1C	9.96
Cc1cccc(C)c1NC(=O)CCCCN	9.81
Cc1cccc(C)c1NC(=O)C(C)N(C)C (stereo not given)	7.33
Cc1cccc(C)c1NC(=O)CCCCCN	10.1

Field pKa (entry CCN(CC)C(C)CCC(=O)Nc1c(C)cccc1C (stereo not given) ) reads 9.87

Field pKa (entry CCN(CC)C(C)CCCC(=O)Nc1c(C)cccc1C (stereo not given) ) reads 10.1

Field pKa (entry "CCN(CC)CCCCCCC(=O)Nc1c(C)cccc1C" ) reads 10.2

Field pKa (entry Cc1cccc(C)c1NC(=O)CN [GLYCINEXYLIDIDE] ) reads 7.42

Field pKa (entry Cc1cccc(C)c1NC(=O)CC(C)N (stereo not given) ) reads 8.71

###

Listed here are compounds together with their documented selectivity ratio.
Assay: Therapeutic index is the ratio of ED50 (ataxia) to ED50 (protection) in mice
Conditions: mouse; read-out: TI
The response must contain the number and no unit.

Illustrative cases are given below, each with its answer.
compound	selectivity ratio
CCN(CC)CCCC(=O)Nc1c(C)cccc1C	5.4
CCN(CC)C(C)CC(=O)Nc1c(C)cccc1C (stereo not drawn)	1.8

Note: attention shifts to another entry.
Field selectivity ratio (entry Cc1cccc(C)c1NC(=O)CCC(C)N (stereo not drawn) ) reads 7.4
